All values here come from the supplement of paper PMC10065799.

Target: FGFR1 (UniProt P11362)
Sequence (P11362 whole entry, looked up): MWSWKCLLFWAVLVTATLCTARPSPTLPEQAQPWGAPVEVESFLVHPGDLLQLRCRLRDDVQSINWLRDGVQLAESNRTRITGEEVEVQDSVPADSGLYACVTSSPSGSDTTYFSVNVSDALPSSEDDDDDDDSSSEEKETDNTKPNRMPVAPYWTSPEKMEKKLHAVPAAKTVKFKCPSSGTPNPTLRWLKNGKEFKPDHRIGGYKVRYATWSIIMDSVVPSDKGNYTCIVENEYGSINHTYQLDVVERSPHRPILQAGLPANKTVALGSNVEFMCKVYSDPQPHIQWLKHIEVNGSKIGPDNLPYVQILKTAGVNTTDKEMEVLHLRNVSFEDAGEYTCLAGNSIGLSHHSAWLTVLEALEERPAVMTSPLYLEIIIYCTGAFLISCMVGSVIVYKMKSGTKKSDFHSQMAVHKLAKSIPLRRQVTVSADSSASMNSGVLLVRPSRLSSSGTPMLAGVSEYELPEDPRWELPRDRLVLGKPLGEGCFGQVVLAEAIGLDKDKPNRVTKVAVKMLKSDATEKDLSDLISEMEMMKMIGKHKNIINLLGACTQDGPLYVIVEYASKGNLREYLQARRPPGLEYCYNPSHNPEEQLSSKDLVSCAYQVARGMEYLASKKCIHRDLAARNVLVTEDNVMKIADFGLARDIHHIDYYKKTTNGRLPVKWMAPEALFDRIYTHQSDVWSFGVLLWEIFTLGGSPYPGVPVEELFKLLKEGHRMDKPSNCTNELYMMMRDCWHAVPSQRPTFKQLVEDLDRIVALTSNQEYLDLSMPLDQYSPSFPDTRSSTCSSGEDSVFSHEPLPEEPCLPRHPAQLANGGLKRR
Experiment: phosphorylation enrichment, bacterial display (enrichment ratio); higher = better substrate or ligand; peptides without Tyr show the background;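 note: 11-residue human phosphosite peptides and single-mutation variants displayed on the E. coli surface, counted by deep sequencing, each peptide's frequency after selection divided by its frequency in the unselected input library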;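 note: frequency after pTyr selection over input frequency; kinase dosed for 20-30% of maximal phosphorylation in three min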
readout.name: phosphorylation enrichment
Respond using a number only.

Illustrative cases are given below, each with its answer.
ETKKQYDSFTY [TMED3_Y85]: 0.5
VGIMLYGVDSR [PKD1_Y3143]: 0.592
RRQDLYSARDL [SART1_Y249]: 0.586
KYVKMCDNHQL [MYO9A_Y203_Y203C]: 0.532
SQSPHYFRSGQ [GPATCH8_Y1038_R1043Q]: 0.366

Looking up YLRTGYSIPYG [TGM1_Y370_V372I] , I found its phosphorylation enrichment recorded as 0.554

###

Test system: Fer (mouse)
Assay: phosphorylation enrichment, bacterial display (enrichment ratio); higher = better substrate or ligand; peptides without Tyr show the background
readout.name: phosphorylation enrichment
Respond using a number only.

AKKVFYMIETR [SHH_Y253_V254M]: 0.561

Looking up DAANNYARGHY [TUBA3E_Y103_S101N] , I found its phosphorylation enrichment recorded as 0.355

###

Test system: Fer (mouse)
Assay: phosphorylation enrichment, bacterial display (enrichment ratio); higher = better substrate or ligand; peptides without Tyr show the background
readout.name: phosphorylation enrichment

Illustrative cases are given below, each with its answer.
TKDTFYKQRMF [GBA_Y451_P454R]: 0.416
NPIGLYSAETL [LDB3_Y202]: 1.12
DLVSEYQQYQD [TUBB3_Y422]: 0.709
LDPMVYMNDKS [PTK2B_Y834]: 0.678
GSCQEYTGAPF [NAXD_Y85_G81S_YF]: 0.466

Looking up TSFQMYDKGLV [IARS2_Y231_F227S_YF] , I found its phosphorylation enrichment recorded as 0.877

Looking up ISDNAYQYMLT [MYH7_Y162] , I found its phosphorylation enrichment recorded as 9.28

Looking up DFFDLYGGEKL [PTPN11_Y66_F71L_YF] , I found its phosphorylation enrichment recorded as 0.816

Looking up EERNPYFSSAR [MCCC2_Y520_G517R_YF] , I found its phosphorylation enrichment recorded as 0.36

Looking up YVPSNYVAEDR [FRK_Y104_I100V] , I found its phosphorylation enrichment recorded as 0.497

###

The reader will find reported phosphorylation enrichment values listed item by item below.
Biological target: Jak2 (UniProt O60674)
Sequence (O60674 whole entry, looked up): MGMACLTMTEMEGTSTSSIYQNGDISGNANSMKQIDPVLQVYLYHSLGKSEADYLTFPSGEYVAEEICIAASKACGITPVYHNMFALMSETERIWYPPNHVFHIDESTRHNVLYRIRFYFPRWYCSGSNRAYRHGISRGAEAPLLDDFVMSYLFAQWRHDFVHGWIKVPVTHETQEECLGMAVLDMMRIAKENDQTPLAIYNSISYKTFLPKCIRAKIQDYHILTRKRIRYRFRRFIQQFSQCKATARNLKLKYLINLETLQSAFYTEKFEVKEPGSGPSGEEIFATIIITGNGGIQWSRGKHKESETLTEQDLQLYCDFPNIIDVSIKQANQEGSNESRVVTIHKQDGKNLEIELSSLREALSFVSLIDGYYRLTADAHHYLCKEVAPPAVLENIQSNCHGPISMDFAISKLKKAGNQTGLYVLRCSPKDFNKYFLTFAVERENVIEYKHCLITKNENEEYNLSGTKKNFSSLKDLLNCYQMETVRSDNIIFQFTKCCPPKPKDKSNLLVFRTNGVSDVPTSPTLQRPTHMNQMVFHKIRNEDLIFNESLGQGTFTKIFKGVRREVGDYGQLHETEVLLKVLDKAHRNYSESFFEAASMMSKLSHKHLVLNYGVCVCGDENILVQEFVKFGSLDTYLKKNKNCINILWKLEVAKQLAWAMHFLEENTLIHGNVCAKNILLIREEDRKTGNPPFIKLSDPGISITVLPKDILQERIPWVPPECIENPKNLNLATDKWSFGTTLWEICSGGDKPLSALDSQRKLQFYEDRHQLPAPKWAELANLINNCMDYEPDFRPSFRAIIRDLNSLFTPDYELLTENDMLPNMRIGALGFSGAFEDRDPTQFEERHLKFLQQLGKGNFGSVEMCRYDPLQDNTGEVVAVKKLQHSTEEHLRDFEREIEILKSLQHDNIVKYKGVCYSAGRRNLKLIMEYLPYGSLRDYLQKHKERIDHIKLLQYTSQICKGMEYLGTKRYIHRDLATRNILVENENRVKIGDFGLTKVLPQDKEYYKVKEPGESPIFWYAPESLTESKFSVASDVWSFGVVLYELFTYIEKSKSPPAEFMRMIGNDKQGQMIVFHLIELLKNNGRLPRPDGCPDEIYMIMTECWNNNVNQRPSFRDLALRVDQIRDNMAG
Test: phosphorylation enrichment, bacterial display (enrichment ratio); higher = better substrate or ligand; peptides without Tyr show the background
Respond using a number only.

GTQGSYLLSRK [UGT3A1_Y123_C121G]: 0.615
SIKDKYVTAVF [KCNH2_Y611_L615V_YF]: 0.839
HRTLVYGGIFL [FBP1_Y259]: 1.07
THPFLYLTLEI [MLH1_Y293_S295T]: 1.97
VLALWYYYLTH [ZDHHC23_Y127]: 2.57

Looking up NPQKSYFICLY [WAS_Y83_R86C] , I found its phosphorylation enrichment recorded as 1.12

Looking up AFLQTYSHEVS [PCDHGA5_Y753] , I found its phosphorylation enrichment recorded as 0.957

Looking up TKYVAYIESQG [KDM4B_Y34_N29T] , I found its phosphorylation enrichment recorded as 0.498

Looking up AVNDFYAAKKT [CCDC178_Y422] , I found its phosphorylation enrichment recorded as 0.548
